All figures here come from a melting point compilation (Tetko et al.; mined from patent text by program, amines drawn as free bases though some values may be those of a salt).

// values below are reported melting point

Examples with answers:
NC(=O)c1nn(-c2ccc(F)cc2)c2c1CCc1ccc(NC(=O)c3cc(N4CCOCC4)ncc3Cl)cc1-2
309 to 313 °C
COc1ccc2cc(C3SCCCS3)ccc2c1
190 °C
OC1CCCCC1N1CCC(Cc2ccc(Cl)cc2)CC1 (stereo not drawn)
69.1 to 70.4 °C
C=CCNc1nc(NC(C)(C)C)nc2ccc([N+](=O)[O-])cc12
139 to 140 °C
CCS(=O)(=O)N(C)C1CC(C)(C)Oc2ccc(O)cc21 (stereo not drawn)
160 to 162 °C
O=C(CCCC1CCN(Cc2ccccc2)CC1)c1ccc(F)cc1
53 to 55 °C

Input "COCc1c[nH]c(-c2ccc(OCc3ccccc3)cc2)n1" , output reported melting point.
146 to 148 °C

Quote melting point reported for "CCCc1c(OCc2cccc(COc3ccccc3CCC(=O)O)c2)ccc2c1OCCC2=O" please.
132 to 135 °C
